Recorded values, source ChEMBL document CHEMBL3763071.

target: Estrogen receptor (Homo sapiens); experiment: Agonist activity at estrogen receptor alpha in human MCF7:WS8 cells after 18 hrs by dual luciferase reporter assay; assay type: cell-based; settings: read-out: EC50
Sequence (P03372 whole entry): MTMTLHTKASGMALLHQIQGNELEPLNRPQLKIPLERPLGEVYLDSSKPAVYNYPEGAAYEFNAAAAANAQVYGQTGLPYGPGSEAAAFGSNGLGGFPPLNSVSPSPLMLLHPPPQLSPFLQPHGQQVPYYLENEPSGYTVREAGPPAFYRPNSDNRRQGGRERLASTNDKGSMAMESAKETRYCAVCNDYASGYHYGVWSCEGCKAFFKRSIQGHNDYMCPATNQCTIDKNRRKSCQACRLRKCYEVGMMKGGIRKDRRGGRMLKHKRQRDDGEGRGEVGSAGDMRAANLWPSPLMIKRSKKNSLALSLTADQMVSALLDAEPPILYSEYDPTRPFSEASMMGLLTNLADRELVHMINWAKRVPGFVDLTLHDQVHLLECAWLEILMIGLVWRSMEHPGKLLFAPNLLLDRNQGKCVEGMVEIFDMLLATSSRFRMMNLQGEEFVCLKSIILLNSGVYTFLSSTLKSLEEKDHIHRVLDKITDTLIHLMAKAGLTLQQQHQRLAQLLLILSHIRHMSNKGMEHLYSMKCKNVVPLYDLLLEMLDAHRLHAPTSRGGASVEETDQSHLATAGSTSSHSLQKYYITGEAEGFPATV
Consider the following molecules; for each one, report its pEC50.
Reminder that pEC50 is minus the log10 of a molar concentration.

Using known records, supply pEC50 for O=C(c1ccc(C(F)(F)F)cc1)c1sc2cc(O)ccc2c1-c1ccc(F)cc1
8.28

Identify the reported pEC50 for the following entry. O=C(c1sc2cc(O)ccc2c1-c1ccc(F)cc1)C1CCCCC1
9.00

Input Oc1ccc(Oc2sc3cc(O)ccc3c2-c2ccc(F)cc2)cc1 , output reported pEC50.
9.10

Answer with the recorded pEC50 of O=C(c1ccc(O)cc1)c1sc2cc(O)ccc2c1-c1ccc(F)cc1 only.
9.70

Assign pEC50 to the following record: CN(C)c1ccc(C(=O)c2sc3cc(O)ccc3c2-c2ccc(F)cc2)cc1
7.51

Hello, please tell me recorded pEC50 for this one: N#Cc1ccc(C(=O)c2sc3cc(O)ccc3c2-c2ccc(F)cc2)cc1
7.23

Report pEC50 for O=C(c1sc2cc(O)ccc2c1-c1ccc(F)cc1)C1CC1
7.86

// Input: O=C(c1ccc(C(F)(F)F)cc1)c1c(-c2ccc(F)cc2)sc2cc(O)ccc12 . Output its pEC50 only.
7.21

Return pEC50 for the following molecule: Oc1ccc(Oc2c(-c3ccc(F)cc3)sc3cc(O)ccc23)cc1
8.21

Respond only with pEC50 recorded for O=C(c1ccc(C(F)(F)F)cc1)c1c(-c2ccc(Cl)cc2)sc2cc(O)ccc12
6.92
